Read-out: Tumor necrosis factor (Homo sapiens)
Assay: BSK_LPS_TNFa: BioMAP Diversity Plus: LPS Assay for Tumour Necrosis Factor alpha (TNFa) Biomarker Activity (AID 2283085)
Conditions: primary human HUVEC with PBMC; actives raise or lower the signal
Active and inactive are the calls of the source. Rule for the calls: active = hit-call score of the fitted dose curve at least 0.9, where 1 is the maximum; inactive = score below 0.9.
Permitted responses: t (active), f (inactive)

Some solved cases for reference:
>  <MOLECULE>
C=C(C)C(=O)[O][Sn]([CH2]CCC)([CH2]CCC)[CH2]CCC

>  <GROUP_LABEL>
t

$$$$
>  <MOLECULE>
CC(C)CCCCCCOC(=O)c1ccccc1C(=O)OCCCCCCC(C)C

>  <GROUP_LABEL>
f

$$$$
>  <MOLECULE>
CCOP(=S)(OCC)Oc1nc(Cl)c(Cl)cc1Cl

>  <GROUP_LABEL>
f

$$$$
>  <MOLECULE>
CCCCC(CC)CO[N+](=O)[O-] (stereo not drawn)

>  <GROUP_LABEL>
f

$$$$
>  <MOLECULE>
O=c1[nH]c(=O)[nH]c(=O)[nH]1

>  <GROUP_LABEL>
f

$$$$
>  <MOLECULE>
O=[N+]([O-])c1ccc2c3c(cccc13)CC2

>  <GROUP_LABEL>
f

$$$$

Now consider a different molecule.
What was the test verdict on `O=C(O)C(Cl)(Cl)Cl` ?
f
